Molecular target: T1, recombinant biotinylated PD-L1 (rhPD-L1/Fc Chimera, R&D Systems 156-B7) (human, UniProt Q9NZQ7 19-238, biotinylated (sites not given))
T1 construct: Bought Fc chimera; also called human PD-L1
T1 sequence (Q9NZQ7 19-238, change not shown): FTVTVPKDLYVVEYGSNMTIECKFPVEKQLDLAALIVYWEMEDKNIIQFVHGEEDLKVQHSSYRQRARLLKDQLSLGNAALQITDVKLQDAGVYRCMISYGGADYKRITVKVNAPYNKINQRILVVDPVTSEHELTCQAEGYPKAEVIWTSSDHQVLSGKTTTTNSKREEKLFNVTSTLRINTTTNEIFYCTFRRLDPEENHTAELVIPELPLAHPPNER
Assay: ELISA, lysate on plate-bound antigen
REPORTED ENDPOINT: ELISA PD-L1 Fc (RSU)
Provide only the numeric value, understood in RSU.

{"BINDER": "ISOP194ER9P1H9 (designed binder, not shown: small tags and cut ends, FN3 domain; E. coli lysate in the ELISA) LPAPKNLVVSRVTEDSARLSWTAPDAAFDSFRIAYYETMVSGEAIVLTVPGSERSYDLTGPKPGTEYAVIIKGVKGGKPSWPLSAIFTT", "EXPERIMENTAL RESULT": "3.04e+06"}

Now look at this entry.
Task item: Consider the binder ISOP121BR5P1E2 (designed binder, not shown: small tags and cut ends, FN3 domain; E. coli lysate in the ELISA) LPAPKNLVVSRVTEDSARLSWWFPLEWFDSFLIQYQESEKVGEAIVLTVPGSERSYDLTGLKPGTEYTVSIYGVYTREHKSVWASNPLSAIFTT and give its measured ELISA PD-L1 Fc (RSU).
Reply: 137000
